- TARGET_SYSTEM: KCNJ5^G151R (Homo sapiens, UniProt P48544, G151R)
- Construct: expressed in transfected cells
- Sequence (P48544 1-419 G151R): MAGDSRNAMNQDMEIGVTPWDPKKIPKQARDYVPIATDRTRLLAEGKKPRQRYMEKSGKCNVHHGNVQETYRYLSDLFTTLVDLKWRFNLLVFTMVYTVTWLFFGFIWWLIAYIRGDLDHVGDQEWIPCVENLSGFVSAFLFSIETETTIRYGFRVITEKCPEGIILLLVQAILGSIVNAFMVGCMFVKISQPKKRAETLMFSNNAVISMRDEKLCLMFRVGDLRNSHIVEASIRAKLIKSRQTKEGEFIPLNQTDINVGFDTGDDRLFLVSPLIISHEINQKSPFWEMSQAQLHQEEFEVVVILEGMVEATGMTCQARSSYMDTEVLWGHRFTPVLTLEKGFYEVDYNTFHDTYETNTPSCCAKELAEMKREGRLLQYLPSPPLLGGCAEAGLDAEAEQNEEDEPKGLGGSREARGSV
- TEST_DETAILS: cell-based
- Format: cell-based
- RUN_PARAMETERS: 10 μM; ATP level 72 h after induction; uninduced = 100%, induced = 0% effect; second of the two runs (primary screen / hit pick, confirmatory testing)
MEASUREMENT_LABEL: % effect (2) (%)
Give the value in % but do not write % after it.

Examples with answers:
COMPOUND	% effect (2) [%]
COC(=O)c1c(NC(=O)c2ccc(S(=O)(=O)N3CCC(C)CC3)cc2)sc2c1CCN(C)C2 [YU207147]	50.5
Cc1oc2ccc(O)c(CN3CCCC(C)C3)c2c1C(=O)Nc1ccccc1 (stereo not shown) [YU164352]	52.4

// moving on: another record for % effect (2)
[Q] Would you kindly share the measured % effect (2) for COc1ccc(NC(=O)c2c(C)oc3ccc(O)c(CN4CCCCCC4)c23)cc1 [YU164420] ?
[A] 42.4

====

- TARGET_SYSTEM: KCNJ5^G151R (Homo sapiens, UniProt P48544, G151R)
- Construct: expressed in transfected cells
- Sequence (P48544 1-419 G151R): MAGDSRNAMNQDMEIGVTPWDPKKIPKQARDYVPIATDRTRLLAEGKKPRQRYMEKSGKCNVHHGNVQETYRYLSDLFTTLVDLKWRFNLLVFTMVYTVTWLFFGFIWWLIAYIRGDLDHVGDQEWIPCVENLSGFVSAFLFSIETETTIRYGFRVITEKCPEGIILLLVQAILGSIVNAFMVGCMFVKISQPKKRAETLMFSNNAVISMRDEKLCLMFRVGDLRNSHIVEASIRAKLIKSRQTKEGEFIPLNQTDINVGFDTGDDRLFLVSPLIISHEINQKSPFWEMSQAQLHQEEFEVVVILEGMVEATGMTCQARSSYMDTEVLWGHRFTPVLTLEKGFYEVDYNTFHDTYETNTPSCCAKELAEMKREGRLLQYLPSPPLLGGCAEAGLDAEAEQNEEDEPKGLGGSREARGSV
- TEST_DETAILS: cell-based
- Format: cell-based
- RUN_PARAMETERS: 10 μM; mean of primary screen and hit pick
// map mean % effect to label using group 1 = under 50%, group 2 = from 50% up to 60%, group 3 = 60% and over

MOLECULE	TARGET_SYSTEM	CLASS_LABEL
Cc1oc2ccc(O)c(CN3CCCC3)c2c1C(=O)Nc1ccc(C(C)C)cc1	KCNJ5^G151R (Homo sapiens, UniProt P48544, G151R)	group 1
C1CCC(N=C(NC23CC4CC(CC(C4)C2)C3)N2CCOCC2)CC1.Cl [YU224116, U-37883A-HCl]	KCNJ5^G151R (Homo sapiens, UniProt P48544, G151R)	group 2
Cc1oc2ccc(O)c(CN3CCCC(C)C3)c2c1C(=O)Nc1ccccc1 (stereo not shown)	KCNJ5^G151R (Homo sapiens, UniProt P48544, G151R)	group 2
O=c1[nH]c2ccccc2s1	KCNJ5^G151R (Homo sapiens, UniProt P48544, G151R)	group 2
COC(=O)c1c(NC(=O)c2ccc(S(=O)(=O)N3CCC(C)CC3)cc2)sc2c1CCN(C)C2	KCNJ5^G151R (Homo sapiens, UniProt P48544, G151R)	group 1

[Q] Please report the category associated with COc1ccc(NC(=O)c2c(C)oc3ccc(O)c(CN4CCCCCC4)c23)cc1 , nothing else.
[A] group 2

[Q] Please report the category associated with CCN1CCN(Cc2c(O)ccc3oc(C)c(C(=O)Nc4cccc(C(F)(F)F)c4)c23)CC1 , nothing else.
[A] group 1

[Q] Please report the category associated with COc1ccc(NC(=O)c2c(C)oc3ccc(O)c(CN4CCN(Cc5ccccc5)CC4)c23)cc1Cl , nothing else.
[A] group 3

[Q] Please report the category associated with Cc1ccccc1NC(=O)c1c(C)oc2ccc(O)c(CN3CCCC(C)C3)c12 (stereo not shown) , nothing else.
[A] group 3

[Q] Please report the category associated with COc1ccc(NC(=O)c2c(C)oc3ccc(O)c(CN4CCCCCC4)c23)cc1Cl , nothing else.
[A] group 1

====

- TARGET_SYSTEM: KCNJ5^G151R (Homo sapiens, UniProt P48544, G151R)
- Construct: expressed in transfected cells
- TEST_DETAILS: cell-based
- Assay type: cell-based
- RUN_PARAMETERS: 10 μM; ATP level 72 h after induction; uninduced = 100%, induced = 0% effect; second of the two runs (primary screen / hit pick, confirmatory testing)
- Protocol: WT or mutant human KCNJ5 cDNAs (Choi et al., 2011, Science 331:768-772) were subcloned into the pcDNA5/FRT/TO vector using BamHI and HindIII. […] Assay plates were centrifuged and incubated overnight at 37° C. […] Luminescence was read on an Envision plate reader (PerkinElmer) with 0.3 second sampling time per well. Raw data (luminescence counts per second) was normalized to percent effect by the formula 100−(((sample−negative control mean)/(positive control mean−negative control mean))*100). […]
% effect (2) reference
Give the value in % but do not write % after it.

COMPOUND	QUANTITATIVE_RESULT
Cc1ccccc1NC(=O)c1c(C)oc2ccc(O)c(CN3CCCC(C)C3)c12 (stereo not shown)	68.3
Cc1oc2ccc(O)c(CN3CCCCC3)c2c1C(=O)Nc1cccc(C(F)(F)F)c1	69.0
O=c1[nH]c2ccccc2s1	65.7

[Q] Would you kindly share the measured % effect (2) for Cc1ccc(NC(=O)c2c(C)oc3ccc(O)c(CN4CCCCCC4)c23)cc1 ?
[A] 48.0

====

- TARGET_SYSTEM: KCNJ5^G151R (Homo sapiens, UniProt P48544, G151R)
- Construct: expressed in transfected cells
- TEST_DETAILS: cell-based
- Assay type: cell-based
- RUN_PARAMETERS: 10 μM; mean of primary screen and hit pick
mean % effect reference
Give the value in % but do not write % after it.

[Q] Would you kindly share the measured mean % effect for Cc1ccccc1NC(=O)c1c(C)oc2ccc(O)c(CN3CCCCCC3)c12 ?
[A] 60.8

[Q] Would you kindly share the measured mean % effect for Cc1oc2ccc(O)c(CN3CCC(C)CC3)c2c1C(=O)Nc1ccccc1 ?
[A] 50.9

[Q] Would you kindly share the measured mean % effect for Cc1oc2ccc(O)c(CN3CCCCC3C)c2c1C(=O)Nc1ccccc1 (stereo not drawn) ?
[A] 60.2

====

- TARGET_SYSTEM: KCNJ5^G151R (Homo sapiens, UniProt P48544, G151R)
- Construct: expressed in transfected cells
- TEST_DETAILS: cell-based
- Type: cell-based
- RUN_PARAMETERS: 10 μM; ATP level 72 h after induction; uninduced = 100%, induced = 0% effect; second of the two runs (primary screen / hit pick, confirmatory testing)
- Protocol: WT or mutant human KCNJ5 cDNAs (Choi et al., 2011, Science 331:768-772) were subcloned into the pcDNA5/FRT/TO vector using BamHI and HindIII. […] Assay plates were centrifuged and incubated overnight at 37° C. […] Luminescence was read on an Envision plate reader (PerkinElmer) with 0.3 second sampling time per well. Raw data (luminescence counts per second) was normalized to percent effect by the formula 100−(((sample−negative control mean)/(positive control mean−negative control mean))*100). […]
MEASUREMENT_LABEL: % effect (2)
The reply should read as a number followed by its unit.

Cc1ccccc1NC(=O)c1c(C)oc2ccc(O)c(CN3CCCCCC3)c12 54.9%
Cc1oc2ccc(O)c(CN3CCCC3)c2c1C(=O)Nc1ccc(C(C)C)cc1 39.4%

// moving on: another record for % effect (2)
[Q] Would you kindly share the measured % effect (2) for CCN1CCN(Cc2c(O)ccc3oc(C)c(C(=O)Nc4cccc(C(F)(F)F)c4)c23)CC1 ?
[A] 52.7%

Origin of measurements: patent US11484543B2
